- Test system: cytochrome c
- Type: cell-based, mouse
- experimental setup: Conc 20 μM; normalized score vs mock-treated (DMSO) wells
Response field label: string, one of Met (cyt c (composite Z-score) strictly below 0.3) or Not met.

Example entries and their recorded answers appear below.
compound="COc1ccc2c(c1)C1(C)CCC(=O)CC1CC2 (stereo not shown)" system="cytochrome c" answer_label=Met
compound="O=C(/C=C/c1ccccc1)c1ccc(O[C@@H]2O[C@H](CO)[C@@H](O)[C@H](O)[C@H]2O)cc1O [2′,4′-dihydroxychalcone 4′-glucoside]" system="cytochrome c" answer_label=Met
compound="C[C@@H]1O[C@@H](O[C@H]2[C@H](O[C@H]3CC[C@@]4(C)[C@@H](CC[C@]5(C)[C@@H]4CC=C4[C@@H]6CC(C)(C)CC[C@]6(C(=O)O[C@@H]6O[C@H](CO[C@@H]7O[C@H](CO)[C@@H](O[C@@H]8O[C@@H](C)[C@H](O)[C@@H](O)[C@H]8O)[C@H](O)[C@H]7O)[C@@H](O)[C@H](O)[C@H]6O)CC[C@]45C)[C@]3(C)CO)OC[C@H](O)[C@@H]2O)[C@H](O)[C@H](O)[C@H]1O [hederacoside C]" system="cytochrome c" answer_label="Not met"

Say whether its cyt c (composite Z-score) is strictly beneath 0.3. Entry: COc1ccc(-c2cc(=O)c3c(O)cc(O[C@H]4O[C@H](CO[C@@H]5O[C@@H](C)[C@H](O)[C@@H](O)[C@H]5O)[C@@H](O)[C@H](O)[C@H]4O)cc3o2)cc1 [buddleoflavonoloside]
Not met

Say whether its cyt c (composite Z-score) is strictly beneath 0.3. Entry: CO[C@H]1C[C@H](O[C@H]2CC[C@]3(C=O)[C@H]4CC[C@]5(C)[C@@H](C6=CC(=O)OC6)CC[C@]5(O)[C@@H]4CC[C@]3(O)C2)O[C@H](C)[C@H]1O [cymarin]
Not met

Say whether its cyt c (composite Z-score) is strictly beneath 0.3. Entry: Cc1c(O)c(C(=O)CC(C)C)c2oc3c(C(=O)CC(C)C)c(O)c(C)c(O)c3c2c1O [rhodomyrtoxin]
Met

Say whether its cyt c (composite Z-score) is strictly beneath 0.3. Entry: CC(C)(C#N)O[C@@H]1O[C@H](CO)[C@@H](O)[C@H](O)[C@H]1O [linamarin]
Met

Say whether its cyt c (composite Z-score) is strictly beneath 0.3. Entry: CC(=O)Oc1cccc2c1C(=O)c1c(OC(C)=O)cc(C(=O)O)cc1C2=O [diacerin]
Not met

Say whether its cyt c (composite Z-score) is strictly beneath 0.3. Entry: `O=C(O)c1nc2cc(Cl)c(Cl)cc2nc1O`
Met

Say whether its cyt c (composite Z-score) is strictly beneath 0.3. Entry: CS(=O)(=O)CCCCN=C=S [erysolin]
Met

Say whether its cyt c (composite Z-score) is strictly beneath 0.3. Entry: O=C(Oc1cc(OC(=O)c2ccccc2)c2c(c1)O[C@H](c1ccc(OC(=O)c3ccccc3)c(OC(=O)c3ccccc3)c1)[C@@H](OC(=O)c1ccccc1)C2)c1ccccc1 [catechin pentabenzoate]
Not met

Say whether its cyt c (composite Z-score) is strictly beneath 0.3. Entry: CC(C)CCC[C@@H](C)C1CC[C@H]2[C@@H]3CCC4CC(=O)CC[C@]4(C)[C@H]3CC[C@]12C (stereo partly shown) [cholestanone]
Met

Say whether its cyt c (composite Z-score) is strictly beneath 0.3. Entry: C=CC(C)(O)CCC=C(C)C (single isomer, unassigned; (+)) [(+)-linalool]
Not met

Say whether its cyt c (composite Z-score) is strictly beneath 0.3. Entry: O=C(CCCCCCCCCCCCC1CCCC1)Nc1ccc(S(=O)(=O)c2ccc(NC(=O)CCCCCCCCCCCCC3CCCC3)cc2)cc1 [chaulmosulfone]
Met

Say whether its cyt c (composite Z-score) is strictly beneath 0.3. Entry: `CCOc1cc(CC(=O)c2ccc(O)c(O)c2O)ccc1O`
Met

Say whether its cyt c (composite Z-score) is strictly beneath 0.3. Entry: CCN1C[C@]2(C)CC[C@H](OC)[C@@]34C1[C@]1(OCO[C@@]15C[C@H](OC)[C@H]1C[C@]3(O)[C@@H]5[C@H]1OC)[C@@H](OC(C)=O)[C@H]24 [deltaline]
Met

Say whether its cyt c (composite Z-score) is strictly beneath 0.3. Entry: COc1ccc([C@H]2COc3cc(O)ccc3C2)c(OC)c1O [mucronulatol]
Met

From: patent US20090143279A1
